Assay: Concentration of pesticides and metabolites in hair of rats after 90-day gavage exposure to a pesticide mixture
Type: in vivo, rat
Settings: exposure expressed as mg/kg per day, concentration as pg/mg, detected values only
Please use yes whenever Slope (linear fit), concentration in hair versus level of exposure is not below 40, and no whenever it is.

molecule	classification
CC1(C)C(C=C(Cl)C(F)(F)F)C1C(=O)O (stereo not drawn)	no
CC1(C)Cc2cccc(O)c2O1	no
CCOP(O)(=S)OCC [DETP, diethylthiophosphate]	no
N#Cc1nn(-c2c(Cl)cc(C(F)(F)F)cc2Cl)c(N)c1[S+]([O-])C(F)(F)F (stereo not drawn)	no
O=C(Nc1ccc(F)cc1F)c1cccnc1Oc1cccc(C(F)(F)F)c1	no
Oc1c(Cl)c(Cl)c(Cl)c(Cl)c1Cl	yes
O=S1OC[C@@H]2[C@H](CO1)[C@]1(Cl)C(Cl)=C(Cl)[C@]2(Cl)C1(Cl)Cl (stereo partly drawn) [β-Endosulfan, β-endosulfan]	no
CC(C)Oc1cc(-n2nc(C(C)(C)C)oc2=O)c(Cl)cc1Cl	no
Cl[C@H]1[C@H](Cl)[C@@H](Cl)[C@@H](Cl)[C@H](Cl)[C@H]1Cl	yes

Just for reference, paper PMC5515982 is where these values come from.
